assay: Plasma concentration after intraduodenal administration to rats; format: in vivo; conditions: Sprague-Dawley, other: into the duodenum, rat, 10 mg/kg into the duodenum, 30 minutes after the administration
property_measured: concentration at 30 min (ng/mL)

>>> df
                                smiles_code  test_value
0  COc1ccc(C[C@H](NC(=O)c2cccc(O)c2C)[C@H](O)C(=O)N2CSC(C)(C)[C@H]2C(=O)NCc2ccccc2C)cc1         420

----------
target: recombinant HIV-1 protease (Human immunodeficiency virus type 1 group M subtype B, UniProt P04585); construct: 10.5 nM HIV-1 protease; test: Measurement of HIV protease inhibitory activity; format: biochemical; details: 50 nM compound; 10.5 nM HIV-1 protease, pH 6.5, 37° C., 60 minutes; read-out: HIV protease inhibition rate (%) at 50 nM
Listed here: items and their measured inhibition at 0.05 µM.

compound	inhibition at 0.05 µM [%]
COc1ccc(C[C@H](NC(=O)c2ccc(F)c(O)c2C)[C@H](O)C(=O)N2CSC(C)(C)[C@H]2C(=O)NCc2ccccc2C)cc1 [Ex. 3]	93
Cc1ccccc1CNC(=O)[C@H]1N(C(=O)[C@@H](O)[C@H](Cc2ccc(C(C)C)cc2)NC(=O)c2cccc(O)c2C)CSC1(C)C [Ex. 10]	96
CCOc1ccc(C[C@H](NC(=O)c2cccc(N)c2Cl)[C@H](O)C(=O)N2CSC(C)(C)[C@H]2C(=O)NCc2ccccc2C)cc1 [Ex. 12]	89
COc1ccc(C[C@H](NC(=O)c2cccc(N)c2Cl)[C@H](O)C(=O)N2CSC(C)(C)[C@H]2C(=O)NCc2ccccc2C)cc1 [Ex. 4]	91
COc1ccc(C[C@H](NC(=O)c2cccc(O)c2C)[C@H](O)C(=O)N2CSC(C)(C)[C@H]2C(=O)NCc2ccccc2C)cc1 [Ex. 1]	95
Cc1ccccc1CNC(=O)[C@H]1N(C(=O)[C@@H](O)[C@H](Cc2ccc(Cl)cc2)NC(=O)c2cccc(O)c2C)CSC1(C)C [Ex. 11]	97
COc1ccc(C[C@H](NC(=O)c2cccc(O)c2C)[C@H](O)C(=O)N2CSC(C)(C)[C@H]2C(=O)NCc2cc(F)ccc2C)cc1 [Ex. 2]	97
COc1ccc(C[C@H](NC(=O)c2cccc(N)c2Cl)[C@H](O)C(=O)N2CSC(C)(C)[C@H]2C(=O)NCc2c(C)cccc2C)cc1 [Ex. 14]	92
Cc1c(O)cccc1C(=O)N[C@@H](CSc1ccccc1)[C@H](O)CN1C[C@H]2CCCC[C@H]2C[C@H]1C(=O)NC(C)(C)C [Re. 5, nelfinavir, reference compound]	93
Cc1ccccc1CNC(=O)[C@H]1N(C(=O)[C@@H](O)[C@H](Cc2ccc3c(c2)OCO3)NC(=O)c2cccc(N)c2Cl)CSC1(C)C [Ex. 13]	95
Cc1cccc(C)c1CNC(=O)[C@H]1N(C(=O)[C@@H](O)[C@H](Cc2ccc3c(c2)OCO3)NC(=O)c2cccc(N)c2Cl)CSC1(C)C [Ex. 15]	96
Cc1ccccc1CNC(=O)[C@H]1N(C(=O)[C@@H](O)[C@H](Cc2ccc(OC(C)C)cc2)NC(=O)c2cccc(O)c2C)CSC1(C)C [Ex. 8]	96
CCOc1ccc(C[C@H](NC(=O)c2cccc(O)c2C)[C@H](O)C(=O)N2CSC(C)(C)[C@H]2C(=O)NCc2ccccc2C)cc1 [Ex. 5]	95
Cc1ccccc1CNC(=O)[C@H]1N(C(=O)[C@@H](O)[C@H](Cc2ccc3c(c2)OCO3)NC(=O)c2cccc(O)c2C)CSC1(C)C [Ex. 6]	97
CCCOc1ccc(C[C@H](NC(=O)c2cccc(O)c2C)[C@H](O)C(=O)N2CSC(C)(C)[C@H]2C(=O)NCc2ccccc2C)cc1 [Ex. 7]	97
